# Measured Target: ZNF609 (UniProt O15014)
# Sequence (O15014 whole entry, looked up): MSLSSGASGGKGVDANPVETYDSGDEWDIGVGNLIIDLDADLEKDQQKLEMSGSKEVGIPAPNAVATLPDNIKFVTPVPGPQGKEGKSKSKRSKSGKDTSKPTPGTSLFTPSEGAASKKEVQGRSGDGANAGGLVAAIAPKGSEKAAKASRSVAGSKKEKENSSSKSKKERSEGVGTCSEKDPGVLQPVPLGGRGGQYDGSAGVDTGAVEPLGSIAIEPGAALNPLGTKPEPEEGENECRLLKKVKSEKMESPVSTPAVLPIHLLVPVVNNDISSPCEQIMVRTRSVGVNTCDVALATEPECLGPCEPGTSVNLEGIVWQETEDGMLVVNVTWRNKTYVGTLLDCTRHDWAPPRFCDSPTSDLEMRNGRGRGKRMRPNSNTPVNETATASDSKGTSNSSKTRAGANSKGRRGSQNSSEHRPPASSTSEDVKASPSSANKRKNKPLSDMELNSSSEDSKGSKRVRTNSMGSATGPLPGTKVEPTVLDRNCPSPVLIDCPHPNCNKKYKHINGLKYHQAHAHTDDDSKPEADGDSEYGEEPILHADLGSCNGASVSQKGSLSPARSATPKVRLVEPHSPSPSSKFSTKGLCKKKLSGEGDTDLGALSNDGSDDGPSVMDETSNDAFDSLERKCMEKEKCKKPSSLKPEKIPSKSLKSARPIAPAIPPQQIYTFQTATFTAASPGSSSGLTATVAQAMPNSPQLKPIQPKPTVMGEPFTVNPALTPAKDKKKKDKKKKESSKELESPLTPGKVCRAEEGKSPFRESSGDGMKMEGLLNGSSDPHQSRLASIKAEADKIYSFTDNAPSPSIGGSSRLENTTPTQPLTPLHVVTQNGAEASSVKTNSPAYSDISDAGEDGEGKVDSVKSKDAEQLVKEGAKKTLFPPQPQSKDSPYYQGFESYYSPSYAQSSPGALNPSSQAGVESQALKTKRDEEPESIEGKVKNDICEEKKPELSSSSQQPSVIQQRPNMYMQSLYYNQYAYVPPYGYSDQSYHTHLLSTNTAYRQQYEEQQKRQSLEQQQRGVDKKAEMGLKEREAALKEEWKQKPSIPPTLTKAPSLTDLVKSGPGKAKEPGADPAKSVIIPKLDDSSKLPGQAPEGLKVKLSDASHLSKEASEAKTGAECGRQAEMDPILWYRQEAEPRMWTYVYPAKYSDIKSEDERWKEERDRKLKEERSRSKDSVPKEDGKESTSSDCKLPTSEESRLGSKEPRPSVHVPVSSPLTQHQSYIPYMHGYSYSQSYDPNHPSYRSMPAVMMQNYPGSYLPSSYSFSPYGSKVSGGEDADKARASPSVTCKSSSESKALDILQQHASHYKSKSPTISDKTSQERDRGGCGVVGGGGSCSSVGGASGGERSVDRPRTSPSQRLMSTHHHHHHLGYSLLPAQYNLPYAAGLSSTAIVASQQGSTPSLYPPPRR
# Test: log2 fold change, soluble protein after heating vs DMSO (PISA); higher = thermal stabilisation; K562 cells, 10 uM, 30 min; active = over 0.2 and 3.5 SD of the protein, either way, in both replicates (recomputed)
Of roughly 7,900 targets only a part is listed; those with a hit were picked by preference. About 0.6% of all pairs of compound and target were hits.
Catalogue of log2 fold change values
Observed Property: log2 fold change

> print(dat)
                           smiles.structure  numeric.result
1  Cc1nc(Nc2ncc(C(=O)Nc3c(C)cccc3Cl)s2)cc(N2CCN(CCO)CC2)n1               0
2         O=C1NC(=O)/C(=C\c2ccc3nccnc3c2)S1          -0.006
3  Cc1ccc(C(=O)N(CCCN)[C@@H](c2nc3cc(Cl)ccc3c(=O)n2Cc2ccccc2)C(C)C)cc1           0.014
4  C[C@@H](Oc1cc(-c2cnn(C3CCNCC3)c2)cnc1N)c1c(Cl)ccc(F)c1Cl          -0.113
5         Cc1ccc(Sc2cncc3sc(C(N)=O)cc23)cc1          -0.045
6  C/C(=N\NC(=O)c1cccc(S(=O)(=O)N2CCOCC2)c1)c1cc(Cl)ccc1O          -0.048
7  O=C(O)c1ccc2c(c1)nc(Nc1cccc(Cl)c1)c1ccncc12            0.02
8  CNc1nc(-c2ccc3c(N)n[nH]c3c2)cc(N2C[C@@H](C(=O)NC3CCCCC3)CC[C@H]2C)n1          -0.004
9  CN1CCN(CCOc2cc(OC3CCOCC3)c3c(Nc4c(Cl)ccc5c4OCO5)ncnc3c2)CC1           0.047

* * *

# Measured Target: ZMYM1 (UniProt Q5SVZ6)
# Sequence (Q5SVZ6 whole entry, looked up): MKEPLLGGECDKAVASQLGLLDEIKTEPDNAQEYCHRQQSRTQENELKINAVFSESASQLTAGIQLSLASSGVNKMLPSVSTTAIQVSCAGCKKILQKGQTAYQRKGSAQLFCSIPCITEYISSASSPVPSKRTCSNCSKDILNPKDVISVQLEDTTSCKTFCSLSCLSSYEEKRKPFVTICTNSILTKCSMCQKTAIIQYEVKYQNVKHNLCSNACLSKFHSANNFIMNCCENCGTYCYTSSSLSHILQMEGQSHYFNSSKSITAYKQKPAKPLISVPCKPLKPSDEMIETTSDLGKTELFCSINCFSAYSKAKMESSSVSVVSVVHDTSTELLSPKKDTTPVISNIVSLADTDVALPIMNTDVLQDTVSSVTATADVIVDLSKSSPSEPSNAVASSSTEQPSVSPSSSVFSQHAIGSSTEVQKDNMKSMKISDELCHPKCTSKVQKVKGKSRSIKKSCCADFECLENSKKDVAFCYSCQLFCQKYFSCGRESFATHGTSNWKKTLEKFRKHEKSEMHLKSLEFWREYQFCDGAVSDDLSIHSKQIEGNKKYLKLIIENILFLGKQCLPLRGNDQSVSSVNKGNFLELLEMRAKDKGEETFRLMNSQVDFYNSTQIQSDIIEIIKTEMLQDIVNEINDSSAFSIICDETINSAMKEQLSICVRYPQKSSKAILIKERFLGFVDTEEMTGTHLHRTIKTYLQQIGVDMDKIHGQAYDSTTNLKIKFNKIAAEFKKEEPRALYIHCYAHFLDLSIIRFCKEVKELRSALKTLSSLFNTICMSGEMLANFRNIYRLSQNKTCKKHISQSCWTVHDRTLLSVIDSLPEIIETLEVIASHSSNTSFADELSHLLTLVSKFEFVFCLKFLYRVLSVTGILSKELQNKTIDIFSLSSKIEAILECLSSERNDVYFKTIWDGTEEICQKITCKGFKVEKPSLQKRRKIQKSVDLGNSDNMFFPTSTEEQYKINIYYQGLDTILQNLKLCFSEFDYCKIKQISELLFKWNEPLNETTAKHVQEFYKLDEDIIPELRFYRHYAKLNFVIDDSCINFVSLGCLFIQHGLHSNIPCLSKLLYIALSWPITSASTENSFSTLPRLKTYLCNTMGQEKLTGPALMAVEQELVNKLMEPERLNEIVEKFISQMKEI
# Test: log2 fold change, soluble protein after heating vs DMSO (PISA); higher = thermal stabilisation; K562 cells, 10 uM, 30 min; active = over 0.2 and 3.5 SD of the protein, either way, in both replicates (recomputed)
Targets with a hit are over-represented here; the source holds about 7,900 in all. About 0.6% of all pairs of compound and target were hits.
Note that class boundaries on log2 fold change are bottom: < -0.06; middle: ≥ -0.06 and < 0.03; top: ≥ 0.03

> print(dat)
                            smiles.structure         measured.target  assigned.label
 1  CN1CCN(CCOc2cc(OC3CCOCC3)c3c(Nc4c(Cl)ccc5c4OCO5)ncnc3c2)CC1  ZMYM1 (UniProt Q5SVZ6)          middle
 2       COc1ccc(Cn2ccc3ccc(C(=O)NO)cc32)cc1  ZMYM1 (UniProt Q5SVZ6)          middle
 3  O=C(CCCCCCNC(=O)c1cnc(N(c2ccccc2)c2ccccc2Cl)nc1)NO  ZMYM1 (UniProt Q5SVZ6)          bottom
 4  NCC(=O)Nc1ccc(-n2nc(C(F)(F)F)cc2-c2ccc3c(ccc4ccccc43)c2)cc1  ZMYM1 (UniProt Q5SVZ6)             top
 5  Cn1cc(-c2ccc3c(c2)CCN3C(=O)Cc2cccc(C(F)(F)F)c2)c2c(N)ncnc21  ZMYM1 (UniProt Q5SVZ6)             top
 6  Cn1cc(-c2ccc3nnc(C(F)(F)c4ccc5ncccc5c4)n3n2)cn1  ZMYM1 (UniProt Q5SVZ6)             top
 7  C[C@H](Nc1ncnc2nc[nH]c12)c1cc2cccc(Cl)c2c(=O)n1-c1ccccc1  ZMYM1 (UniProt Q5SVZ6)          bottom
 8  Cc1cn(-c2cc(NC(=O)c3ccc(C)c(Nc4nccc(-c5cccnc5)n4)c3)cc(C(F)(F)F)c2)cn1  ZMYM1 (UniProt Q5SVZ6)          middle
 9  Cc1ccc(NC(=O)c2cccc(C(C)(C)C#N)c2)cc1Nc1ccc2ncn(C)c(=O)c2c1  ZMYM1 (UniProt Q5SVZ6)          bottom
10  CCN(CC)Cc1ccc2cc(COC(=O)Nc3ccc(C(=O)NO)cc3)ccc2c1  ZMYM1 (UniProt Q5SVZ6)             top
11            O=C1c2ccccc2-c2n[nH]c3cccc1c23  ZMYM1 (UniProt Q5SVZ6)          middle
12  Nc1ccccc1NC(=O)c1ccc(CNC(=O)OCc2cccnc2)cc1  ZMYM1 (UniProt Q5SVZ6)          middle
13  O=C1NC(=O)C(c2cnc3ccccn23)=C1c1cn2c3c(cc(F)cc13)CN(C(=O)N1CCCCC1)CC2  ZMYM1 (UniProt Q5SVZ6)             top
14  FC(F)(F)c1ccc(/C=C/c2nc(COc3ccc(CCCCn4ccnn4)cc3)co2)cc1  ZMYM1 (UniProt Q5SVZ6)          bottom
15  CN1CCN(c2nc(C3=C(c4c[nH]c5ccccc45)C(=O)NC3=O)c3ccccc3n2)CC1  ZMYM1 (UniProt Q5SVZ6)          middle
16  CN1CC[C@H](c2c(O)cc(O)c3c(=O)cc(-c4ccccc4Cl)oc23)[C@H](O)C1  ZMYM1 (UniProt Q5SVZ6)          middle
17  NC(=O)Nc1cc(-c2cccc(F)c2)sc1C(=O)N[C@H]1CCCNC1  ZMYM1 (UniProt Q5SVZ6)          bottom
18         O=C1NC(=O)/C(=C\c2ccc3nccnc3c2)S1  ZMYM1 (UniProt Q5SVZ6)          middle

* * *

# Measured Target: ZNF609 (UniProt O15014)
# Test: log2 fold change, soluble protein after heating vs DMSO (PISA); higher = thermal stabilisation; K562 cells, 10 uM, 30 min; active = over 0.2 and 3.5 SD of the protein, either way, in both replicates (recomputed)
The full data set covers some 7,900 targets. This sample favours those with a hit. About 0.6% of all pairs of compound and target were hits.
Observed Property: log2 fold change

Molecule	Numeric Result
CCN(CC)Cc1ccc2cc(COC(=O)Nc3ccc(C(=O)NO)cc3)ccc2c1	0.063
O=C(CCCCCCC(=O)Nc1ccccc1)NO	-0.128
CS(=O)(=O)N1CCN(Cc2cc3nc(-c4cccc5[nH]ncc45)nc(N4CCOCC4)c3s2)CC1	0.107
CO[C@H]1C[C@@H]2CC[C@@H](C)[C@@](O)(O2)C(=O)C(=O)N2CCCC[C@H]2C(=O)O[C@H]([C@H](C)C[C@@H]2CC[C@H](n3cnnn3)[C@H](OC)C2)CC(=O)[C@H](C)/C=C(\C)[C@@H](O)[C@@H](OC)C(=O)[C@H](C)C[C@H](C)/C=C/C=C/C=C/1C	-0.008
CCn1c(C(=O)N(C2CC2)C2CC2)cc2c3c(ncn3C)c(Nc3cc(C)n(C)n3)nc21	0.007
CC1=C(C(=O)Nc2cc3cn[nH]c3cc2F)C(c2ccc(C(F)(F)F)cc2)CC(=O)N1 (stereo unspecified)	-0.117
FC(F)(F)c1ccc(/C=C/c2nc(COc3ccc(CCCCn4ccnn4)cc3)co2)cc1	0.019
O=C(Nc1nc2ccccc2n1CCN1CCOCC1)c1cccc([N+](=O)[O-])c1	-0.031
Cc1cccc(-c2[nH]c(C(C)(C)C)nc2-c2ccc3nccnc3c2)n1	0.014
C[C@H](Nc1ncnc2nc[nH]c12)c1cc2cccc(Cl)c2c(=O)n1-c1ccccc1	0.073
NC1(c2ccc(-c3nc4ccn5c(=O)[nH]nc5c4cc3-c3ccccc3)cc2)CCC1	0.018
Cc1ccc(NC(=O)c2ccc(CN3CC[C@H](N(C)C)C3)c(C(F)(F)F)c2)cc1Nc1nccc(-c2cncnc2)n1	-0.233
Cn1cc(-c2ccc3c(c2)CCN3C(=O)Cc2cccc(C(F)(F)F)c2)c2c(N)ncnc21	-0.041
Cc1cn(-c2cc(NC(=O)c3ccc(C)c(Nc4nccc(-c5cccnc5)n4)c3)cc(C(F)(F)F)c2)cn1	0.03
Cc1nc(Nc2n[nH]c3c2CN(C(=O)N[C@H](CN(C)C)c2ccccc2)C3(C)C)c2sccc2n1	-0.018
C#Cc1cccc(Nc2ncnc3cc(OCCOC)c(OCCOC)cc23)c1	0.03

* * *

# Measured Target: ZDHHC5 (UniProt Q9C0B5)
# Sequence (Q9C0B5 whole entry, looked up): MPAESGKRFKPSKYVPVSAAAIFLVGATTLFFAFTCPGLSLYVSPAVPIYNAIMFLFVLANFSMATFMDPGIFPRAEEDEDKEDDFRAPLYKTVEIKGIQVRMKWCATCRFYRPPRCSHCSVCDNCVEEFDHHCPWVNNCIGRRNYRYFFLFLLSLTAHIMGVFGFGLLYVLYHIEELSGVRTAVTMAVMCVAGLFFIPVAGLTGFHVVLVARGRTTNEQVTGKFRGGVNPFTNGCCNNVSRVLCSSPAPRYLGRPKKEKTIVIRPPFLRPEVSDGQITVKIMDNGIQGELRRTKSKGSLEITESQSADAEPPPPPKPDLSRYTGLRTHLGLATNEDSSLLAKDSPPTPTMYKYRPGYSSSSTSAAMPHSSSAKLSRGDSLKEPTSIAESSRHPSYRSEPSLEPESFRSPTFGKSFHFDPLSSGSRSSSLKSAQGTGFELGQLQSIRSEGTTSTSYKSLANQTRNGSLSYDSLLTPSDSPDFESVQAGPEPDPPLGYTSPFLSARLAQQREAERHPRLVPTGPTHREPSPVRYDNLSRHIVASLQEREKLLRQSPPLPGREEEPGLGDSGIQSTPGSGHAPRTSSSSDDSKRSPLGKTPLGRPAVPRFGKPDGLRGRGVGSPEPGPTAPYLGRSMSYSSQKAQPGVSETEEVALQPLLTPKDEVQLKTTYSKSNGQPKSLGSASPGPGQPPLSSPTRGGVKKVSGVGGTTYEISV
# Test: log2 fold change, soluble protein after heating vs DMSO (PISA); higher = thermal stabilisation; K562 cells, 10 uM, 30 min; active = over 0.2 and 3.5 SD of the protein, either way, in both replicates (recomputed)
Of roughly 7,900 targets only a part is listed; those with a hit were picked by preference. About 0.6% of all pairs of compound and target were hits.
Criterion: log2 fold change meeting or surpassing -0.01. Met: 1 (yes). Not met: 0 (no).

> print(dat)
                                   compound          measured.target  assigned.label
1  NC(=O)c1ccc2nc(-c3ccc(Oc4ccc(Cl)cc4)cc3)[nH]c2c1  ZDHHC5 (UniProt Q9C0B5)         1 (yes)
2  CNC(=O)c1ccc(Nc2ncc(C(F)(F)F)c(NCc3nccnc3N(C)S(C)(=O)=O)n2)cc1 [defactinib]  ZDHHC5 (UniProt Q9C0B5)          0 (no)
3  CNC(=O)c1ccccc1Nc1nc(Nc2ccc(N3CCOCC3)cc2OC)ncc1Cl  ZDHHC5 (UniProt Q9C0B5)         1 (yes)
4  c1cc(OCCN2CCCCC2)cc(-c2n[nH]c3ccc(-c4nnc[nH]4)cc23)c1  ZDHHC5 (UniProt Q9C0B5)          0 (no)
5  CCCCN(Cc1ccc(C(=O)NO)cc1)C(=O)Nc1ccccc1 [Nexturastat A]  ZDHHC5 (UniProt Q9C0B5)         1 (yes)
6  COc1cc2nc(-c3cc(F)ccc3O)nc(N[C@@H]3CNC[C@H]3C(C)(C)O)c2cc1OC  ZDHHC5 (UniProt Q9C0B5)         1 (yes)
7  COc1cc(Nc2ncc3c(n2)-c2ccc(Cl)cc2C(c2c(F)cccc2OC)=NC3)ccc1C(=O)O [alisertib]  ZDHHC5 (UniProt Q9C0B5)          0 (no)
8         O=C1NC(=O)/C(=C\c2ccc3nccnc3c2)S1  ZDHHC5 (UniProt Q9C0B5)         1 (yes)
